- Measured target: D(2) dopamine receptor (Rattus norvegicus, UniProt P61169)
- Sequence (P61169 whole entry): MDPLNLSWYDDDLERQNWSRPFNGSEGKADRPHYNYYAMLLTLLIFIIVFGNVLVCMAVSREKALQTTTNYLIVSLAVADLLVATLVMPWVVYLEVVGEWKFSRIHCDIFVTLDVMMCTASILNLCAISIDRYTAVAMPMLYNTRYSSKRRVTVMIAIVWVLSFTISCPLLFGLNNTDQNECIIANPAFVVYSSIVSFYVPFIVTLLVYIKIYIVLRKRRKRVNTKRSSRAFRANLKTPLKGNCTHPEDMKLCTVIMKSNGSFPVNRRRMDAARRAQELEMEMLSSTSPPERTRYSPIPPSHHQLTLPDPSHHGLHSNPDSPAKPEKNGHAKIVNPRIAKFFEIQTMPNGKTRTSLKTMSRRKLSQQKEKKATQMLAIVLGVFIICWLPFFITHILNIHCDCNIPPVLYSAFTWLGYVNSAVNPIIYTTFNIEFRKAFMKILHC
Endpoint label: pKi
The scale used: pKi is minus the common logarithm of the concentration in molar units.

CCCN(CCC)C1C=Cc2c(OC)cccc2C1C (configuration not stated) [CAS_5311190] : 7.40

We now examine a further molecule.
Report pKi for Nc1nc2c(ncn2[C@@H]2O[C@H](COP(=O)(O)OP(=O)(O)NP(=O)(O)O)[C@@H](O)[C@H]2O)c(=O)[nH]1 [Guanylyl imidodiphosphate] please.
5.77

* * *

Let's go through some Ki measurements on D(3) dopamine receptor (Rattus norvegicus) together.
Sequence (P19020 whole entry): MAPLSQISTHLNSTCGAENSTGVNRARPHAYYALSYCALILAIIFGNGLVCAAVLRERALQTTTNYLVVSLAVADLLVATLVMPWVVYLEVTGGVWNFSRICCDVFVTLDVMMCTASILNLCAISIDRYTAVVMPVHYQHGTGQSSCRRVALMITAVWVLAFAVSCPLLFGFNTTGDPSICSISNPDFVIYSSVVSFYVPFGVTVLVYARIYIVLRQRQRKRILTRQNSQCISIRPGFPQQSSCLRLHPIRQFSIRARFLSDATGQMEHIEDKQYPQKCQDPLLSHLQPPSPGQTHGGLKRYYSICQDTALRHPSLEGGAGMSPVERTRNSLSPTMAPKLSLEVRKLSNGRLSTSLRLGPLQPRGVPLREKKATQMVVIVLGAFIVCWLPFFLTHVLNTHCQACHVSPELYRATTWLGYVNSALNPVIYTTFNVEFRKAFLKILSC
// return numeric value only (unit: nM, not printed)

Nc1nc2c(ncn2[C@@H]2O[C@H](COP(=O)(O)OP(=O)(O)NP(=O)(O)O)[C@@H](O)[C@H]2O)c(=O)[nH]1 [Guanylyl imidodiphosphate] : 27

Which Ki reading was recorded for the compound CCCN(CCC)C1C=Cc2c(OC)cccc2C1C (configuration not stated) ?
9.2
